Cited source: patent US20240208961A1

experiment: Pharmacokinetic studies of certain compounds in female Balb/c mice (Example 5); format: in vivo; settings: female, Balb/c, mouse, plasma, po, 23.8 mg/kg, I-29 PO 23.8 mg/kg, 0.083 hr, read-out: Plasma concentration Individual
assayMetric: concentration at 0.083 hr (ng/mL)

givenSmiles	assayMetric	reported
CC(C)Cc1sc(Nc2ncc(-c3cccs3)cc2C(=O)O)nc1C1CCC(F)(F)CC1	concentration at 0.083 hr	31.6

---

assay: Pharmacokinetic studies of certain compounds in female Balb/c mice (Example 5); type: in vivo; conditions: female, Balb/c, mouse, plasma, po, 30 mg/kg, I-3 PO 30 mg/kg, 0.25 hr, read-out: Plasma concentration Mean
assayMetric: concentration at 0.25 hr (ng/mL)

givenSmiles	unitInfo	reported
CC(C)Cc1sc(Nc2ncc(-c3cccs3)cc2C(=O)O)nc1C1CCCCC1	ng/mL	445

---

test: Pharmacokinetic studies of certain compounds in female Balb/c mice (Example 5); type: in vivo; settings: mouse, plasma, I-1 PO 30 mg/kg

givenSmiles	AUC(0-t)
CC(C)Cc1sc(Nc2ncc(-c3cccs3)cc2C(=O)O)nc1C1=CCOCC1	1640 ng·h/mL

---

assay: Pharmacokinetic studies of certain compounds in female Balb/c mice (Example 5); assay type: in vivo; details: female, Balb/c, mouse, plasma, iv, 1 mg/kg, I-3 IV 1 mg/kg, 8 hr, BQL = below quantifiable limit of 1.00 ng/mL, read-out: Plasma concentration Mean

givenSmiles	concentration at 8 h
CC(C)Cc1sc(Nc2ncc(-c3cccs3)cc2C(=O)O)nc1C1CCCCC1	1.62 ng/mL

---

assay: Pharmacokinetic study of I-11 in female BALB/c mice (Example 4); format: in vivo, Balb/c mouse; details: female, BALB/c, mouse, plasma, iv, 5 mg/kg, IV 5 mg/kg, 4 hr, read-out: Plasma concentration Mean

givenSmiles	concentration at 4 hr, ng/mL
CC(C)Cc1sc(Nc2ncc(-c3cccs3)cc2C(=O)O)nc1C(C)(C)C	45.5

---

test: Pharmacokinetic studies of certain compounds in female Balb/c mice (Example 5); assay type: in vivo; details: female, Balb/c, mouse, plasma, po, 100 mg/kg, I-2 PO 100 mg/kg, 4 hr, read-out: Plasma concentration Mean

givenSmiles	concentration at 4 h [µg/mL]
CC(C)Cc1sc(Nc2ncc(-c3cccs3)cc2C(=O)O)nc1C1=CCCCC1	2.45

---

assay: Pharmacokinetic study of I-11 in female BALB/c mice (Example 4); type: in vivo, Balb/c mouse; conditions: mouse, plasma, IV 5 mg/kg

compound	AUC(0-t), ng·h/mL
CC(C)Cc1sc(Nc2ncc(-c3cccs3)cc2C(=O)O)nc1C(C)(C)C [Compound I-11]	5220
